molecular target: human M4 receptor (Homo sapiens); experiment: human M4 positive allosteric modulator potency assay; assay type: cell-based; conditions: human M4 PAM; mean of at least 3 experiments
Sequence (P08173 whole entry): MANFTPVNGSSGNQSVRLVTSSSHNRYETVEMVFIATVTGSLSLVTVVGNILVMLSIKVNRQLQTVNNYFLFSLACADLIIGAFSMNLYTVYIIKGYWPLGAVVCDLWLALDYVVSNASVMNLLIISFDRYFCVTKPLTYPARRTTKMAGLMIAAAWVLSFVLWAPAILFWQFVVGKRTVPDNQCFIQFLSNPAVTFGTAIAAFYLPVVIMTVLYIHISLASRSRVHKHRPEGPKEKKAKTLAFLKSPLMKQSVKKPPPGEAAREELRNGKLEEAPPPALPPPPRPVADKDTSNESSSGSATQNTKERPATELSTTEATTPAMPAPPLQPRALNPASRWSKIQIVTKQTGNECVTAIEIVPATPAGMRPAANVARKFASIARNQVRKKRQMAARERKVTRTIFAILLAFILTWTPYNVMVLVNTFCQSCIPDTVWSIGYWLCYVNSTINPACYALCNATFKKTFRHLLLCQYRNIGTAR
property_name: pEC50 ± SEM
Answer as a number with no unit attached.

# example entries with known answers
compound	property_name	recorded_number
Cc1nc2sc(C(=O)NC(C)c3cccnc3)c(N)c2c(C)c1Cl (stereo not shown)	pEC50 ± SEM	6.17
Cc1nc2sc(C(=O)NCCc3ccccn3)c(N)c2c(C)c1Cl	pEC50 ± SEM	6.07
Cc1nc2sc(C(=O)NC(C)c3ccccn3)c(N)c2c(C)c1Cl (stereo not shown)	pEC50 ± SEM	5.86
Cc1nc2sc(C(=O)NC3CCOC3)c(N)c2c(C)c1Cl (stereo not shown)	pEC50 ± SEM	7.28
Cc1nc2sc(C(=O)NCc3ccnnc3)c(N)c2c(C)c1Cl	pEC50 ± SEM	6.49

Query: Consider the compound shown here: Cc1nc2sc(C(=O)NCc3ccccc3Cl)c(N)c2c(C)c1Cl What is its recorded pEC50 ± SEM?
Result: 6.81

Query: Consider the compound shown here: Cc1nc2sc(C(=O)NC(C)C)c(N)c2c(C)c1Cl What is its recorded pEC50 ± SEM?
Result: 6.83

Query: Consider the compound shown here: Cc1nc2sc(C(=O)NCc3ccc(F)c(F)c3)c(N)c2c(C)c1Cl What is its recorded pEC50 ± SEM?
Result: 6.81

Query: Consider the compound shown here: Cc1nc2sc(C(=O)NC3CCCCC3)c(N)c2c(C)c1Cl What is its recorded pEC50 ± SEM?
Result: 6.65

Query: Consider the compound shown here: Cc1nc2sc(C(=O)NCCC3CCCN3C)c(N)c2c(C)c1Cl (stereo not shown) What is its recorded pEC50 ± SEM?
Result: 6.03

Query: Consider the compound shown here: Cc1nc2sc(C(=O)NCc3nccs3)c(N)c2c(C)c1Cl What is its recorded pEC50 ± SEM?
Result: 6.60

Query: Consider the compound shown here: Cc1nc2sc(C(=O)NCc3ccc(Cl)cc3)c(N)c2c(C)c1Cl What is its recorded pEC50 ± SEM?
Result: 6.75

Query: Consider the compound shown here: Cc1nc2sc(C(=O)NCCc3ccncc3)c(N)c2c(C)c1Cl What is its recorded pEC50 ± SEM?
Result: 6.89

Query: Consider the compound shown here: Cc1nc2sc(C(=O)NCc3ccc(C(F)(F)F)cc3)c(N)c2c(C)c1Cl What is its recorded pEC50 ± SEM?
Result: 5.76

Query: Consider the compound shown here: Cc1ccc(CNC(=O)c2sc3nc(C)c(Cl)c(C)c3c2N)cc1 What is its recorded pEC50 ± SEM?
Result: 6.98

Query: Consider the compound shown here: Cc1nc2sc(C(=O)NC3COC3)c(N)c2c(C)c1Cl What is its recorded pEC50 ± SEM?
Result: 5.70

Query: Consider the compound shown here: Cc1cc(CNC(=O)c2sc3nc(C)c(Cl)c(C)c3c2N)ccn1 What is its recorded pEC50 ± SEM?
Result: 7.21

Query: Consider the compound shown here: Cc1nc2sc(C(=O)NC(C)(C)C)c(N)c2c(C)c1Cl What is its recorded pEC50 ± SEM?
Result: 6.51

Query: Consider the compound shown here: Cc1nc2sc(C(=O)NC3CC3)c(N)c2c(C)c1Cl What is its recorded pEC50 ± SEM?
Result: 7.11
